# protocol.notes: solvent given as SMILES
# condition.description: in CS(C)=O
Parameter threshold = 400 nm. Response is yes (1) when absorption maximum meets or exceeds it, else no (0).

CCCN1/C(=C/C=C(/C=C/C2=[N+](CCC)c3ccccc3C2(C)C)c2cc[n+](C)cc2)C(C)(C)c2ccccc21 : yes (1)
CN(C)c1ccc(C2=[N+]3C(=Nc4c(-c5ccc(O)cc5)cc(-c5ccc(N(C)C)cc5)n4[B-]3(F)F)C(c3ccc(O)cc3)=C2)cc1 : yes (1)
Brc1ccc(-c2nc3sc4ccccc4c3s2)cc1 : no (0)
Cc1cc(=O)oc2cc3c4ccccc4c4ccccc4c3cc12 : no (0)
CCCCCCCCCCCCCCCC[n+]1ccc(/C=C/c2ccccc2O)cc1 : yes (1)

Check this compound for absorption maximum at or above 400 nm: "CCC1=C(C)C(=O)n2c1cc1c(C)c(CC(=O)OC)c(C)n1c2=O"
yes (1)

Thanks! And "N#Cc1cc2ccc(O)cc2oc1=O" ?
no (0)

* * *

// absorption maximum lookup, one value per entry
# protocol.notes: solvent given as SMILES
# condition.description: in CCO
Only the number, expressed in nm, is required.

CCCCOc1c(C=C2N(C)c3ccccc3C2(C)C)c(=O)c1=O : 425

The record that follows has no absorption maximum shown yet.
Consider the compound "N#CC1=C(c2ccc(-c3cccs3)s2)CC1" and give its measured absorption maximum.
367

* * *

# protocol.notes: solvent given as SMILES
# condition.description: in CCO
metric: absorption maximum

C=C(C)C(CN1C(=O)c2cccc3cccc(c23)C1=O)OO (stereo not drawn) : 332 nm
CCCCCCC(CCCCCC)n1c(=O)c2c3ccc4cccc5c6cccc7ccc(c2c1=O)c(c76)c3c45 : 336 nm

The record that follows has no absorption maximum shown yet.
Consider the molecule "Cc1ccccc1-c1c2ccc(=[N+]3CCOCC3)cc-2oc2cc(N3CCCCC3)ccc12" and give its measured absorption maximum.
560 nm

* * *

# protocol.notes: solvent given as SMILES
# condition.description: in c1ccccc1
// absorption maximum lookup, one value per entry
Only the number, expressed in nm, is required.

The following molecules have reported results that may help.
c1ccc2c(c1)Nc1ccccc1B2c1c2ccccc2cc2ccccc12 : 394
CN(C)c1ccc2nc(-c3ccc(C(=O)O)cc3)sc2c1 : 394

The record that follows has no absorption maximum shown yet.
Consider the molecule "CCC1=C(C)C(=O)n2c1cc1[nH]c(C(=O)OC(C)(C)C)c(C)c1c2=O" and give its measured absorption maximum.
396

* * *

# protocol.notes: solvent given as SMILES
# condition.description: in ClCCl
metric: absorption maximum
Give me the value, and tack the unit on after it.

Consider the compound "COc1ccc(-c2cnc(/C=C/c3ccc(C#N)cc3)o2)cc1OC" and give its measured absorption maximum.
370 nm

Thanks! And "COC(=O)c1cc(=O)n(C)c2cc(-c3ccccc3OC)sc12" ?
398 nm

Thanks! And "COc1ccc(C2=C(C)C3=C(c4c(-c5ccccn5)nc5ccccn45)c4c(C)cc(C)n4[B-](F)(F)[N+]3=C2C)cc1" ?
535 nm

Thanks! And "COc1ccc(-n2c3ccccc3c3c(C)cc4ccccc4c32)cc1" ?
303 nm

Thanks! And "N#Cc1ccc(-c2nc(-c3ccccc3)c3ccccn23)cc1" ?
380 nm

Thanks! And "CCn1c2cc(-c3cccs3)ccc2c2ccc(-c3cccs3)cc21" ?
370 nm

Thanks! And "CN(C)c1cccc(/C=C/c2ncc(-c3ccc(OCc4ccccc4)c(OCc4ccccc4)c3)o2)c1" ?
350 nm

Thanks! And "Cc1cc2ccccc2c2[nH]c3ccccc3c12" ?
300 nm

Thanks! And "CCNc1cc2oc(=O)c3c(=O)oc4ccccc4c3c2cc1C" ?
441 nm

Thanks! And "c1ccc2c(c1)Nc1ccccc1B2c1c2ccccc2cc2ccccc12" ?
394 nm

Thanks! And "CN(C)c1ccc(/C=C/c2cc[n+](Cc3cc(C[n+]4ccc(/C=C/c5ccc(N(C)C)cc5)cc4)cc(C[n+]4ccc(/C=C/c5ccc(N(C)C)cc5)cc4)c3)cc2)cc1" ?
500 nm

Thanks! And "CCCCn1c(-c2ccc(-c3nnc(-c4ccc5ccccc5c4)o3)cc2)nc2c3ccccc3c3ccccc3c21" ?
363 nm

Thanks! And "COCCOCCOCCOCC(COCCOCCOCCOC)Oc1cc(/C=C/c2ccc(/C=C(\C#N)c3ccncc3)cc2)c(OC(COCCOCCOCCOC)COCCOCCOCCOC)cc1/C=C/c1ccc(/C=C(\C#N)c2ccncc2)cc1" ?
445 nm

Thanks! And "CCN(CC)c1ccc(/C=N/c2ccccc2/N=C/c2ccc(N(CC)CC)cc2O)c(O)c1" ?
442 nm

Thanks! And "O=[N+]([O-])c1ccc(C#Cc2ccc3ccc(C#Cc4ccc([N+](=O)[O-])cc4)cc3c2)cc1" ?
347 nm

Thanks! And "c1ccc(-c2cc(-c3ccc(-c4nc(-c5ccccn5)c(-c5ccccn5)[nH]4)cc3)cc(-c3ccccn3)n2)nc1" ?
388 nm

* * *

# protocol.notes: solvent given as SMILES
# condition.description: in CCO
// absorption maximum lookup, one value per entry
Only the number, expressed in nm, is required.

OC1(c2ccc(-c3cccs3)s2)CCCC1 : 342
COC(=O)CN1C(=O)c2cc3ccc(N(C)C)cc3cc2C1=O : 379
Cc1ccc(C2=C3C=C(I)C=[N+]3[B-](F)(F)n3c2cc(I)c3I)cc1 : 559
COC(=O)CCC(NC(=O)CCNc1cccc2ccccc12)C(=O)OC (stereo not drawn) : 330
CC/[NH+]=c1\cc2oc3cc(NCCC(=O)NC(C(=O)OC)c4ccccc4)c4ccccc4c3nc-2cc1C (stereo not drawn) : 580
CC/[NH+]=c1\cc2oc3cc(NCCC(=O)NCCCCC(NC(C)=O)C(=O)OC)c4ccccc4c3nc-2cc1C (stereo not drawn) : 590
Cc1cc2cc3ccccc3cc2cn1 : 379.08

The record that follows has no absorption maximum shown yet.
Consider the compound "CC/[NH+]=c1\cc2oc3cc(NCCN)c4ccccc4c3nc-2cc1C" and give its measured absorption maximum.
590

* * *

# protocol.notes: solvent given as SMILES
# condition.description: in C1COCCO1
Label Satisfied when absorption maximum < 400 nm; otherwise Not satisfied.

Known results for compounds:
CN1CCN(c2ccc3c4c(cccc24)C(=O)c2ccccc2-3)CC1 : Not satisfied
COC(=O)c1c2ccccc2nc2ccccc12 : Satisfied
Nc1ccc2c(C(F)(F)F)cc(=O)oc2c1 : Satisfied
CN(C)c1ccc(-c2nc3cnccc3[nH]2)cc1 : Satisfied
COc1ccc(/C=C/C=C/C2=NC3C(=O)NC(N)=NC3N2[C@H]2C[C@H](O)[C@@H](CO)O2)cc1 (stereo partly drawn) : Satisfied
CCN(CC)c1ccc(Nc2cc3oc(-c4ccc(C#N)cc4)nc3c3ccccc23)c(C)c1 : Not satisfied
CC(=O)c1c2c(cc3ccc(N(C)C)cc13)CCC2 : Satisfied
COc1ccc(-c2ccc(-c3ccc(F)cc3)cc2)cc1 : Satisfied

In the record for "CC1=C(Cc2ccccc2)C(C)=[N+]2C1=C(C)c1c(C)c(-c3csc(N4CCOCC4)n3)c(C)n1[B-]2(F)F" , is absorption maximum less than 400 nm?
Not satisfied

Thanks! And "O=C1NC(c2ccccc2)=C/C1=C\c1ccccc1" ?
Not satisfied

Thanks! And "O=C1/C(=C2\Sc3ccccc3C2=O)Sc2ccccc21" ?
Not satisfied

* * *

# protocol.notes: solvent given as SMILES
# condition.description: in ClCCl
// absorption maximum lookup, one value per entry
Only the number, expressed in nm, is required.

CCOc1cccc2c1O[B-](F)(F)[n+]1c3c(c4c(c1-2)-c1ccccc1CC4)-c1ccccc1CC3 : 343
COc1ccc(-c2c3cc4ccccc4cc3c(C#Cc3ccccc3)c3cc4cc(C)sc4cc23)cc1 : 580
CCCCN1C(=O)c2cc(Oc3ccc(C(C)(C)C)cc3)c3c4c(Oc5ccc(C(C)(C)C)cc5)cc5c(=O)n6c(c7cc(Oc8ccc(C(C)(C)C)cc8)c(c8c(Oc9ccc(C(C)(C)C)cc9)cc(c2c38)C1=O)c4c57)=Cc1ccc2ccccc2[n+]1[B-]6(F)F : 648
F[B-]1(F)Oc2ccc(Br)cc2-c2c3c(c4c([n+]21)CCc1ccccc1-4)CCc1ccccc1-3 : 347
CN(C)c1nc(N)nc2c1nc(C#N)n2Cc1ccccc1 : 324

Consider the molecule CCOC(=O)C1=C(C)NC2=C(C(=O)c3ccccc32)C1c1ccc(N(C)C)cc1 (stereo not drawn) and give its measured absorption maximum.
387

Thanks! And "CCN(CC)c1ccc(/C=N/c2cc3nc4ccccc4nc3cc2/N=C/c2ccc(N(CC)CC)cc2O)c(O)c1" ?
476

Thanks! And "CCCCCCCCCCCCCCCC[n+]1ccc(/C=C/c2ccccc2O)cc1" ?
553.8

Thanks! And "CCCCN1C(=O)C2=C(c3ccc(-c4ccccc4)cc3)[N-]C(=O)C2=C1c1ccc(-c2ccccc2)cc1" ?
585

Thanks! And "COc1ccc(-c2[nH]c(=O)n3c2-c2ccccc2C3=O)c(OC)c1" ?
406

Thanks! And "CN(C)CCNc1ccc([N+](=O)[O-])cc1[N+](=O)[O-]" ?
352

Thanks! And "CC(C)c1cccc(C(C)C)c1N1C(=O)c2cccc3c(Oc4ccc(C(C)(C)c5ccccc5)cc4)ccc(c23)C1=O" ?
365

Thanks! And "COc1cccc(-n2c(-c3ccc(F)cc3)nc(C)c2C)c1" ?
284

Thanks! And "CCCCCCn1c(=O)c2c3nc4cc5sc6c(nc5cc4sc3c3c(=O)n(CCCCCC)c(=O)c3c2c1=O)c1c(=O)n(CCCCCC)c(=O)c1c1c(=O)n(CCCCCC)c(=O)c61" ?
633

Thanks! And "F[B-]1(F)n2c(c(-c3ccccc3)c(-c3cccs3)c2-c2ccccc2)N=C2C(c3ccccc3)=C(c3cccs3)C(c3ccccc3)=[N+]21" ?
650

Thanks! And "CCOC(=O)/C(C#N)=C\c1cn(-c2ccccc2)nc1-c1ccccc1" ?
348

Thanks! And "COCCOCCOCCOCC(COCCOCCOCCOC)Oc1cc(/C=C/c2ccc(/C=C(\C#N)C(=O)c3ccccc3)cc2)c(OC(COCCOCCOCCOC)COCCOCCOCCOC)cc1/C=C/c1ccc(/C=C(\C#N)C(=O)c2ccccc2)cc1" ?
461

Thanks! And "CCCCCCOc1cc(N(CC)CC)ccc1/C=C(\C#N)c1ccc(/C=C/C(=C(C#N)C#N)c2ccc3c(c2)c2ccccc2n3CC)s1" ?
570

Thanks! And "CCCCCCCCCCCCN1C(=O)c2c(c3ccc4cc(-c5ccc(C(F)(F)F)cc5)c(OC)cc4c3c3c2ccc2cc(-c4ccc(C(F)(F)F)cc4)c(OC)cc23)C1=O" ?
427

Thanks! And "CCCCCCc1ccc(-n2c3[n+](c4c5ccccc5c5ccccc5c42)[B-](C)(C)c2cc(N(c4ccccc4)c4ccccc4)ccc2-3)cc1" ?
392

Thanks! And "COc1ccc(N2c3c(sc4ccccc34)Sc3sc4ccccc4c32)cc1" ?
309

Thanks! And "CCc1ccccc1-c1c2ccccc2c(C#Cc2ccccc2)c2cc3ccccc3cc12" ?
522

Thanks! And "CCCCCc1ccc(C#Cc2cc(C#Cc3ccc(CCCCC)cc3)c3ccc4c(C(=O)c5ccccc5)cc(C#Cc5ccc(CCCCC)cc5)c5ccc2c3c54)cc1" ?
457

Just for reference, the Deep4Chem optical property database is where these values come from.
